# STUDY_SYSTEM: murine IL-21R expressed on cells (murine, UniProt Q9JHX3 20-529)
# Sequence (Q9JHX3 20-529 limits assumed): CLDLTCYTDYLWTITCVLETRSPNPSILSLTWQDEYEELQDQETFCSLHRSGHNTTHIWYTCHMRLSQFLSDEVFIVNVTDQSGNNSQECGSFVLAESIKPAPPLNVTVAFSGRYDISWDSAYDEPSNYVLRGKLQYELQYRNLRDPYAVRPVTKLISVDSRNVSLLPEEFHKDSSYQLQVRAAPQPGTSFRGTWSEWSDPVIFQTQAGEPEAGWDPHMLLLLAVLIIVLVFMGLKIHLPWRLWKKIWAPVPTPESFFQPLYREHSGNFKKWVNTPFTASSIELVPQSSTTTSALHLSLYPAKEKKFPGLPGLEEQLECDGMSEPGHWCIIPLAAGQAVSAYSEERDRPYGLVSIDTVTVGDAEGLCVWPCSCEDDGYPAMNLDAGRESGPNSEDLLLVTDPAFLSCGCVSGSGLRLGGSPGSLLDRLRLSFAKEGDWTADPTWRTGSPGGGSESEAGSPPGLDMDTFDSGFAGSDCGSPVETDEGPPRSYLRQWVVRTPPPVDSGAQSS
# ASSAY_METHOD_TEXT: cell-based or functional assay
READOUT_KIND: Murine IL-21R-BaF3 Proliferation IC50 (nM)
Express it in nM; write the number only.

- BINDER: "AbA (antibody, human IgG1, V domains shown, Full-length human IgG1 / human lambda, transient, conditioned medium; Framework limits derived; also called VHP/VL2) VH: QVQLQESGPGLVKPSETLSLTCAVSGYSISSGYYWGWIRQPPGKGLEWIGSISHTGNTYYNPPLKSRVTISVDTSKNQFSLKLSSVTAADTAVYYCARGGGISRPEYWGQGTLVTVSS VL: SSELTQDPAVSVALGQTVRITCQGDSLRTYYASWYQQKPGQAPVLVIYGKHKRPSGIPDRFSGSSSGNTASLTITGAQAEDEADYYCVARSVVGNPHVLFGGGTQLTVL"
  Murine IL-21R-BaF3 Proliferation IC50 [nM]: 0.08

Proceed to the following item.
Quick one: Murine IL-21R-BaF3 Proliferation IC50 of AbN (antibody, human IgG1, V domains shown, Full-length human IgG1 / human lambda, transient, conditioned medium; Framework limits derived; also called VH6/VL24) VH: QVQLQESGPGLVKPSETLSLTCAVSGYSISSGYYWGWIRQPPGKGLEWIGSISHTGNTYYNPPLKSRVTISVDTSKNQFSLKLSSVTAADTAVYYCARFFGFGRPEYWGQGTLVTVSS VL: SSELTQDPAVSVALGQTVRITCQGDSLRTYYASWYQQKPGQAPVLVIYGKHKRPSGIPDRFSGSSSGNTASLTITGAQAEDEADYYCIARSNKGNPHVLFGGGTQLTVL ?
0.435
